Where these numbers come from: paper PMC6305410

// reported % NleB1 inhibition (µM compound) / 20 for each item listed
# assay-system: NleB1 (Escherichia coli)
# Construct: GST-EHEC-NleB1 in pET42a (GST/His tagged), expressed in E. coli BL21 (DE3), nickel purified; some tag cleavage noted
# experimental-conditions: 20 µM; inhibitor

| compound | % NleB1 inhibition (µM compound) / 20 (%) |
| --- | --- |
| COc1ccc(C2CC(O)(c3ccccc3)Oc3c(C)ccc(C)c32)cc1 (stereo not drawn) [KUC101437N] | 13.9 |
| O=C1CS(=O)(=O)N(Cc2cccc(F)c2)c2ccc(Br)cc21 [KUC103319N] | 37.2 |
| C[C@H]1CC[C@]2(CCC(=O)N2CCCOC(=O)c2ccccc2)CC1 [KUC110967N] | 53.8 |
| CCCCCCCCN1[C@@H](CC(=O)OC)c2cc(F)ccc2S1(=O)=O [KUC101907N] | 22.1 |
| Cc1ccc([C@H]2CC[C@]3(CCC(=O)N3CCOC(=O)Nc3cccc(C#N)c3)CC2)cc1 [KUC111012N] | 25.1 |
| O=S1(=O)CC(N2CCN(Cc3ccccc3F)CC2)CN1Cc1cn(Cc2cccc(Cl)c2)nn1 (stereo not drawn) [KUC108236N] | 26.7 |
| CCC(=O)c1ccc(OCc2cn(CC(=O)c3ccc(O)cc3)nn2)cc1 [KUC104108N] | 35.3 |
| Cc1ccc2c(c1)C1CS(=O)(=O)N(C3CCCC3)C(=O)N1C2 (stereo not drawn) [KUC109525N] | 31.5 |
| CC(C)CN1CCC(=O)N(CCC#N)CC1 [KUC102485N] | 23.1 |

---

# assay-system: NleB1 (Escherichia coli)
# Construct: GST-EHEC-NleB1 in pET42a (GST/His tagged), expressed in E. coli BL21 (DE3), nickel purified; some tag cleavage noted
# experimental-conditions: 160 µM; inhibitor
Label True for high-side % NleB1 inhibition (µM compound) / 160 (at or above 40%) and False for low-side % NleB1 inhibition (µM compound) / 160 (below it).

| compound | assay-system | group |
| --- | --- | --- |
| O=C(c1ccc([N+](=O)[O-])cc1)N1[C@H](COCc2ccccc2)C=CS1(=O)=O [KUC107029N] | NleB1 (Escherichia coli) | True |
| COC(=O)[C@H](C(C)C)N1Cc2nnn(Cc3ccccc3)c2-c2ccccc2S1(=O)=O [KUC110604N] | NleB1 (Escherichia coli) | False |
| O=S1(=O)CCOC[C@H](c2ccccc2)N1Cc1ccc(Cl)c(Cl)c1 [KUC102739N] | NleB1 (Escherichia coli) | True |
| Cc1ccc2c(c1)C1CS(=O)(=O)N(C3CCCC3)C(=O)N1C2 (centres unmarked) [KUC109525N] | NleB1 (Escherichia coli) | False |
| C[C@@H](NS(=O)(=O)c1cc(Cl)ccc1F)[C@H](O)c1ccccc1 [KUC103993N] | NleB1 (Escherichia coli) | False |
| O=C1CN(Cc2ccccc2)S(=O)(=O)c2ccccc21 [KUC101184N] | NleB1 (Escherichia coli) | True |
| CCCCCCC(=O)N1C/C=C\C(c2ccc(OC)cc2)N(Cc2ccc(F)cc2)C(=O)[C@@H]1Cc1ccccc1 (some centres unmarked) [KUC101608N] | NleB1 (Escherichia coli) | False |
| C[C@H](c1ccccc1)N1C[C@@H](COCc2ccccc2)Oc2cc(N3CC[C@@H](O)C3)ccc2S1(=O)=O [KUC108511N] | NleB1 (Escherichia coli) | True |

---

// reported % NleB1 inhibition (µM compound) / 20 for each item listed
# assay-system: NleB1 (Escherichia coli)
# Construct: GST-EHEC-NleB1 in pET42a (GST/His tagged), expressed in E. coli BL21 (DE3), nickel purified; some tag cleavage noted
# experimental-conditions: 20 µM; inhibitor

| compound | % NleB1 inhibition (µM compound) / 20, % |
| --- | --- |
| C=CCN1CC[C@@H](O)C(=C)S1(=O)=O [KUC103094N] | 23.8 |
| CC(C)CC1C(=O)N(Cc2cn(CCC3OCCCO3)nn2)CCS(=O)(=O)N1Cc1ccc(-c2ccc(F)nc2)cc1 (centres unmarked) [KUC105151N] | 15.1 |
| COc1ccc2cc([C@H](C)C(=O)OCc3cn(CC(=O)c4ccc(O)cc4)nn3)ccc2c1 [KUC104115N] | 44.0 |
| O=C(c1ccc([N+](=O)[O-])cc1)N1[C@H](COCc2ccccc2)C=CS1(=O)=O [KUC107029N] | 41.5 |
| CC1C(=O)N(Cc2cn(CCC3OCCCO3)nn2)CCS(=O)(=O)N1Cc1ccc(-c2cccc(N(C)C)c2)cc1 (centres unmarked) [KUC104889N] | 28.9 |
| CCCCCC(=O)N1C[C@H](n2cc(COC(=O)c3ccccc3)nn2)[C@@H](O)C[C@@H]1c1ccc(Cl)cc1 [KUC105040N] | 14.5 |
| CCCC(=O)c1ccc(OCc2cn(CC(=O)c3ccc(O)cc3)nn2)cc1 [KUC104099N] | 42.2 |
| O=C1CN(Cc2ccccc2)S(=O)(=O)c2ccccc21 [KUC101184N] | 18.5 |

---

# assay-system: NleB1 (Escherichia coli)
# Construct: GST-EHEC-NleB1 in pET42a (GST/His tagged), expressed in E. coli BL21 (DE3), nickel purified; some tag cleavage noted
# experimental-conditions: 80 µM; inhibitor
recorded-metric: % NleB1 inhibition (µM compound) / 80 (%)

| molecule | experimental-result |
| --- | --- |
| Cc1ccc([C@H]2CC[C@]3(CCC(=O)N3CCOC(=O)Nc3cccc(C#N)c3)CC2)cc1 [KUC111012N] | 20.7 |
| O=C(Cn1cc(COc2c(F)c(F)cc(F)c2F)nn1)c1ccc(O)cc1 [KUC104092N] | 67.2 |
| COc1ccc2cc([C@H](C)C(=O)OCc3cn(CC(=O)c4ccc(O)cc4)nn3)ccc2c1 [KUC104115N] | 61.4 |
| CC1C(=O)N(Cc2cn(CCC3OCCCO3)nn2)CCS(=O)(=O)N1Cc1ccc(-c2cccc(N(C)C)c2)cc1 (stereo not drawn) [KUC104889N] | 35.9 |
| Cc1cccc(C(=O)N2CCC(=O)N([C@H](COCc3ccc(Cl)cc3)Cc3ccccc3)CC2)c1 [KUC100143N] | 42.0 |
| CCCC(=O)c1ccc(OCc2cn(CC(=O)c3ccc(O)cc3)nn2)cc1 [KUC104099N] | 62.5 |
| CCCCCCCCN1[C@@H](CC(=O)OC)c2ccc(/C=C/C(=O)OC)cc2S1(=O)=O [KUC102268N] | 33.3 |
| O=C(c1ccc(F)cc1)N1CCCC2(CC(c3cccc(Cl)c3)=CO2)C1 (stereo not drawn) [KUC111570N] | 24.2 |
| C=CCN1CC[C@@H](O)C(=C)S1(=O)=O [KUC103094N] | 18.2 |

---

# assay-system: NleB1 (Escherichia coli, UniProt Q8XBX8)
# Construct: GST-EHEC-NleB1 in pET42a (GST/His tagged), expressed in E. coli BL21 (DE3), nickel purified; some tag cleavage noted
# experimental-conditions: 160 µM; inhibitor

| compound | % NleB1 inhibition (µM compound) / 160 |
| --- | --- |
| COc1ccc2cc([C@H](C)C(=O)OCc3cn(CC(=O)c4ccc(O)cc4)nn3)ccc2c1 [KUC104115N] | 78.6% |
| C=CCN1CC[C@@H](O)C(=C)S1(=O)=O [KUC103094N] | 18.0% |
| CC(C)CC1C(=O)N(Cc2cn(CCC3OCCCO3)nn2)CCS(=O)(=O)N1Cc1ccc(-c2ccc(F)nc2)cc1 (stereo not shown) [KUC105151N] | 53.0% |
| COc1ccc(OCc2cn(CC(=O)c3ccc(O)cc3)nn2)cc1 [KUC104109N] | 82.9% |

---

# assay-system: NleB1 (Escherichia coli)
# Construct: GST-EHEC-NleB1 in pET42a (GST/His tagged), expressed in E. coli BL21 (DE3), nickel purified; some tag cleavage noted
# experimental-conditions: 10 µM; inhibitor
// reported % NleB1 inhibition (µM compound) / 10 for each item listed
recorded-metric: % NleB1 inhibition (µM compound) / 10 (%)

| molecule | assay-system | experimental-result |
| --- | --- | --- |
| O=S1(=O)CCOC[C@H](c2ccccc2)N1Cc1ccc(Cl)c(Cl)c1 [KUC102739N] | NleB1 (Escherichia coli) | 16.3 |
| CC(C)CC1C(=O)N(Cc2cn(CCC3OCCCO3)nn2)CCS(=O)(=O)N1Cc1ccc(-c2ccc(F)nc2)cc1 (centres unmarked) [KUC105151N] | NleB1 (Escherichia coli) | 0.6 |
| O=c1cc(-c2ccccc2Cl)oc2c(NS(=O)(=O)c3cc(Cl)cc(Cl)c3O)ccc(O)c12 [KUC100066N] | NleB1 (Escherichia coli) | 43.0 |
| COc1cc(C(C)=O)ccc1OCc1cn(CC(=O)c2ccc(O)cc2)nn1 [KUC104076N] | NleB1 (Escherichia coli) | 32.0 |
| CC(C)CN1CCC(=O)N(CCC#N)CC1 [KUC102485N] | NleB1 (Escherichia coli) | 16.0 |
| Cc1cccc(C(=O)N2CCC(=O)N([C@H](COCc3ccc(Cl)cc3)Cc3ccccc3)CC2)c1 [KUC100143N] | NleB1 (Escherichia coli) | 35.9 |
| O=C(Oc1ccc([N+](=O)[O-])cc1)O[C@H]1CC[C@@]23CCCN2C(=O)CCC[C@H]3[C@H]1Cc1ccccc1 [KUC112275N] | NleB1 (Escherichia coli) | 2.6 |
| O=C(Cn1cc(COc2ccccc2C(F)(F)F)nn1)c1ccc(O)cc1 [KUC104085N] | NleB1 (Escherichia coli) | 36.1 |
